Please go through the items and note down their IC50.
study system: IDH1-R132H recombinant protein (Homo sapiens, UniProt O75874, R132H)
Sequence (O75874 whole entry R132H): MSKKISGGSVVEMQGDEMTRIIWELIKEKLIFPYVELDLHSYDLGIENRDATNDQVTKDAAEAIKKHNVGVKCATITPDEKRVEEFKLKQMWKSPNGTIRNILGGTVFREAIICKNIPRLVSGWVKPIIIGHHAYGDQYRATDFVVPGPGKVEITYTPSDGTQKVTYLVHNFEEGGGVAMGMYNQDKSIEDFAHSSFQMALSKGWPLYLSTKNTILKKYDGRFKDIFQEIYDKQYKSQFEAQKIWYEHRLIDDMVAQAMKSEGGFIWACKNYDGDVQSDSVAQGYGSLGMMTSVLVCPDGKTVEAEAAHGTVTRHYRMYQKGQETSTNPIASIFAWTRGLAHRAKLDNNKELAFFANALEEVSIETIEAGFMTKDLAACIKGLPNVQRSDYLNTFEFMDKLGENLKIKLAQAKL
experiment description: IDH1-R132H enzymatic assay (NADPH consumption, diaphorase/resazurin readout)
Assay type: biochemical
condition details: read-out: Enzyme IDH1 R132H IC50 Range
Procedure: Assays were performed in a 384-well black plate. […] The IC50 of a given compound was calculated by fitting the dose response curve of inhibition of NADPH consumption at a given concentration with the four parameter logistic equation.

Item under review: COc1cc(NCc2cc3cc(Cl)c(OCCN(C)C)cc3[nH]c2=O)ccc1C#N [Compound I-61] . Reported IC50?
10 to 100 nM

Same question, COc1cc(NCc2cc3cc(I)ccc3[nH]c2=O)ccc1C#N [Compound I-28] this time
100 to 1000 nM

Same question, COc1cc(NCc2cc3cc(Cl)c(OCc4ccccn4)cc3[nH]c2=O)ccc1C#N [Compound I-58] this time
10 to 100 nM

Same question, COc1cc(NCc2cc3cccnc3[nH]c2=O)ccc1C#N [Compound I-31] this time
> 1000 nM
